# credit: paper PMC9228468

- protocol-details: Therapeutic drug monitoring: plasma levels by HPLC-UV, dose-normalized plasma concentrations
- Format: in vivo, human
- condition-label: last monitored cycle, after TDM and dose adjustments
Recorded mean interpatient variability in dose-normalized plasma concentrations (CV) for the following compounds
Write it as a number; the unit % goes unstated.

Endpoint output: mean interpatient variability in dose-normalized plasma concentrations (CV) of C#Cc1cccc(Nc2ncnc3cc(OCCOC)c(OCCOC)cc23)c1 . Value?
44

For Cc1ccc(NC(=O)c2ccc(CN3CCN(C)CC3)cc2)cc1Nc1nccc(-c2cccnc2)n1 then?
50.84

Try CS(=O)(=O)CCNCc1ccc(-c2ccc3ncnc(Nc4ccc(OCc5cccc(F)c5)c(Cl)c4)c3c2)o1 next.
56

What would you report for CNC(=O)c1cc(Oc2ccc(NC(=O)Nc3ccc(Cl)c(C(F)(F)F)c3)cc2)ccn1 ?
72.5
